Test system: HEK293
Experiment: Cytotoxic Profiling of Annotated Libraries Using Quantitative High-Throughput Screening (AID 1296008); note: % is set by controls: 0 for no effect and ±100 for the full control effect; nearly all actives have a fitted effect of over 60% in size
Settings: Five cell lines viability, CellTiter-Glo ATP luminescence, 48-72 h; hits give low values
Inconclusive results are not listed.
Under this convention, 1 denotes max response strictly below -10% and 0 denotes max response at or above -10%.

Sample answers from the record:
Consider NCc1cccnc1 . Does its max response lie strictly below -10%?
0

Hello, is max response of the following compound strictly smaller than -10%? Nc1ccc(Cl)cc1C(=O)c1ccccc1F
0

Identify whether the compound CN1C2CCC(C)(C)C1CC(OC(=O)C(O)(c1cccs1)c1cccs1)C2 (stereo unspecified) records max response below -10%.
1

Criterion: max response strictly below -10%. Is it met by O=C(O)Cc1ccccc1 ?
0

Shift focus to the following entry.
I'd appreciate it if you could check whether CCC1(c2ccccc2)CCC(=O)NC1=O (stereo unspecified) has max response smaller than -10%.
0

====

Test system: PAD
Test: qHTS profiling for inhibitors of Plasmodium falciparum proliferation (AID 504749); note: nearly all actives have a fitted effect of over 60% in size; note: potency is the fitted concentration of half-maximal effect
Conditions: P. falciparum in erythrocytes, SYBR Green DNA, 72 h; series mostly up to 28.7 µM
Inconclusive results are not listed. Calls of active or inactive are those of the source. Calls follow the shape of the dose curve; as a rule, active = well fitted inhibition curve with a large enough effect; inconclusive = small, poorly fitted or top-dose-only effect; inactive = flat fitted curve, though single readings scatter.
readoutName: Potency

Example entries begin here.
Endpoint output: Potency of COP(=S)(OC)Oc1ccc(Sc2ccc(OP(=S)(OC)OC)cc2)cc1 . Value?
inactive

Name the recorded Potency for CC(C)[N+](C)(CCC(C(N)=O)(c1ccccc1)c1ccccc1)C(C)C .
inactive

What does the record list as Potency for CCC1(CC)C(=O)NC(=O)NC1=O ?
inactive

I would be grateful if you could share the reported Potency for NC(=O)CN1CCCC1=O .
inactive

Which Potency reading was recorded for the compound Clc1ccc(CO/N=C(\Cn2ccnc2)c2ccc(Cl)cc2Cl)c(Cl)c1 ?
2.51 µM (active)

Potency for O=C(CCCN1CCC(n2c(=O)[nH]c3ccccc32)CC1)c1ccc(F)cc1 ?
1.12 µM (active)

Further cases:
I have this compound here, CC(C)C(Br)C(=O)NC(N)=O (stereo not given) , and I need its recorded Potency.
inactive

====

Conditions: Ebola virus entry assay, ratio channel
Calls of active or inactive are those of the source. The rule behind the calls is not given here.
Hi there, use one of these labels in your reply, thanks! YES for active, NO for inactive

Recorded results for 3 molecules are shown here.
How did this test come out for COc1cc(NS(=O)(=O)c2ccc(N)cc2)ncn1 ?
NO

Query: recorded result category for CCOC(=O)[C@H](CCc1ccccc1)N[C@H]1CCc2ccccc2N(CC(=O)O)C1=O in this test
YES

Outcome? O=C(CCCN1CCN(c2ccc(F)cc2)CC1)NC1c2ccccc2CSc2ccccc21 (configuration not stated)
YES

Others:
Status in this test for CC(=O)O[C@H]1C[C@@H]2CC[C@@H]3[C@H](CC[C@@]4(C)[C@H]3C[C@H]([N+]3(C)CCCCC3)[C@@H]4OC(C)=O)[C@@]2(C)C[C@@H]1N1CCCCC1 ?
NO

====

Assay: qHTS of pediatric cancer cell lines to identify multiple opportunities for drug repurposing: Primary screen for Rh41 cells (AID 1347108); note: nearly all actives have a fitted effect of over 70% in size
Details: Rh41 rhabdomyosarcoma viability, CellTiter-Glo luminescence, 48 h; series mostly up to 46 µM
Inconclusive results are not listed. The source made the active and inactive calls. The call rests on the fitted dose curve; in most records, active means well fitted cell-killing curve with a large enough effect; inconclusive means small, poorly fitted or top-dose-only effect; inactive means no such curve, though single readings can be large or run the other way.
# output must be one of yes = active, no = inactive

// below: answered molecules
Test call for this molecule, please: Oc1c(Br)cc(Br)cc1Br
no

I'd appreciate the recorded outcome for Oc1ccc2[nH]cc(CCCCN3CC=C(c4ccccc4)CC3)c2c1 from this test.
no

Recorded test outcome, item CCCC(C)C1(CC)C(=O)N=C(S)NC1=O (configuration not stated)
no

Could you check what this test reported for C[C@]12CC[C@H]3[C@@H](CCC4=CC(=O)CC[C@@]43C)[C@@H]1CC[C@@H]2C(=O)O ?
no

Check the results log: what was the call for C=CCOC(Cn1ccnc1)c1ccc(Cl)cc1Cl (configuration not stated) ?
no

Per the assay record, what outcome was assigned to c1cc2c(c(N3CCNCC3)c1)OCCO2 ?
no

Further cases:
Hi, sorry to bother you, what did the test record for CN(C)C(=O)Oc1cc(OC(=O)N(C)C)cc(C(O)CNC(C)(C)C)c1 (configuration not stated) ?
no

// outcome(item) with item = C[C@@H]1CN(C2CCC(C#N)(c3ccc(F)cc3)CC2)CC[C@]1(C(=O)O)c1ccccc1 (some centres not stated)
no

GET /call?item= CC(CC(C#N)(c1ccccc1)c1ccccc1)N(C)C (configuration not stated) returns the recorded outcome of this test.
no

Please let me know the test result on file for CCN(Cc1ccc(Cl)nc1)/C(=C/[N+](=O)[O-])NC .
no

Lab log entry: CC(=O)OC1(c2ccccc2)CCN(CCc2ccccc2)CC1 — outcome as called in the assay?
yes

====

Test: Primary qHTS for inhibitors of MERS-S pseudo-typed particle cell entry (AID 1479149); note: nearly all actives have a fitted effect of over 60% in size
Conditions: MERS-S pseudotyped particle entry, luciferase; series mostly up to 57.1 µM
Results filed as inconclusive are left out. Activity calls are given as the source filed them. Calls come from the whole dose curve.
Choose one outcome from this list and give only that: active, inactive

Record excerpt, results attached:
# fetch the recorded call for CN(C)c1ccc(C(=C2C=CC(=[N+](C)C)C=C2)c2ccccc2)cc1 here
active

// param item: CCN1CCN(c2cc(-c3ccc(F)cc3)c3c(n2)CCCCCC3)CC1 ; yields the recorded call
inactive

Others:
Could you please tell me the result logged for CC1=C2[C@H]3OC(=O)[C@@H](C)[C@@H]3CC[C@@]2(C)C=CC1=O in this assay?
inactive

What call does the record list for O=C(O)c1ccccc1Nc1cc(Cl)ccc1C(=O)O ?
inactive

So what was the verdict on CCC(C(=O)OCCN1CCOC(c2ccccc2)C1C)c1ccccc1 (stereo not drawn) in this test?
inactive

Entry CCN(CC)C(=O)Nc1ccc(OCC(O)CNC(C)(C)C)c(C(C)=O)c1 (stereo not drawn) : call = ?
inactive

Please share the test call associated with NC(=O)OCCCc1ccccc1 .
inactive

Test call for this molecule, please: CC(C)C(=O)OCc1cccc(OC(=O)[C@@H]2N3C(=O)[C@@H](NC(=O)Cc4ccccc4)[C@H]3SC2(C)C)c1
inactive

# fetch the recorded call for COc1ccc2cc1Oc1ccc(cc1)C[C@H]1c3c(cc4c(c3Oc3cc5c(cc3OC)CCN(C)[C@@H]5C2)OCO4)CCN1C here
active

Status in this test for CCCCCCc1ccc(O)cc1O ?
active

How was NC(=O)C1(N2CCCCC2)CCN(CCCC(=O)c2ccc(F)cc2)CC1 classified in this test?
inactive

GET /call?item= C/C(=C(/OCCOc1ccc(Cl)cc1)c1ccc(Cl)cc1Cl)n1ccnc1 returns the recorded outcome of this test.
inactive

Could you kindly confirm the outcome this assay logged for CCC1NC(=O)c2cc(S(N)(=O)=O)c(Cl)cc2N1 (stereo not drawn) ?
inactive

====

Conditions: Ebola virus entry assay, reporter ratio channel; Channel type: primary
The source made the active and inactive calls. How the calls were made is not given here.
Choose the fitting class; nothing outside active, inactive is accepted.

Worked examples follow.
Any idea what this test logged for c1ccc2c(c1)Sc1ccccc1N2CC1CN2CCC1CC2 (stereo not given) ?
active

Hey, what did the test say about Clc1ccccc1C(c1ccccc1)(c1ccccc1)n1ccnc1 ?
active

Given CNCCC(Oc1ccccc1OC)c1ccccc1 (stereo not given) , state the outcome it received in this test.
active

// return assay outcome for COc1ccc(CN(CCN(C)C)c2ncccn2)cc1
inactive

We now examine a further compound.
Please share the test call associated with COc1ccnc2c1CCCCC2S(=O)c1nc2ccccc2[nH]1 (stereo not given) .
inactive

====

Conditions: Ebola virus entry assay, reporter ratio channel; Channel type: primary
Calls of active or inactive are those of the source. The rule behind the calls is not given here.
Permitted responses: YES = active, NO = inactive

Past entries and their recorded results:
Name the outcome recorded for CN(C)CCCSc1ccccc1NC(=O)/C=C/c1ccccc1 in the assay.
YES

Give the logged outcome of this assay for the following compound: C=C[C@@]1(C)CC(=O)[C@]2(O)[C@@]3(C)[C@@H](O)CCC(C)(C)[C@@H]3[C@H](O)[C@H](OC(C)=O)[C@@]2(C)O1
NO

Hi team, can someone confirm the assay call for COc1ccc(-c2nc3ccc(C4=NNC(=O)CC4C)cc3[nH]2)cc1 (stereo unspecified) ?
YES

Name the outcome recorded for Oc1c(Cl)cc(Cl)cc1Sc1cc(Cl)cc(Cl)c1O in the assay.
YES

# fetch the recorded call for O=C1Nc2cc(Cl)ccc2Oc2ccccc21 here
NO

***
// outcome(item) with item = CCCCCCCCCCCCCCC[C@H](O)[C@@H](N)CO
NO

Hi team, can someone confirm the assay call for CCCCc1cc2ccccc2c(OCCN(C)C)n1 ?
YES

Short answer needed: outcome of this test for N#C/C(=C1/SC[C@@H](c2ccc(Cl)cc2Cl)S1)n1ccnc1 ?
YES

====

Assay: Primary qHTS for inhibitors of SARS-S pseudo-typed particle cell entry (AID 1479145); note: nearly all actives have a fitted effect of over 45% in size
Details: SARS-S pseudotyped particle cell entry, luciferase reporter; series mostly up to 57.1 µM
Records with an inconclusive call do not appear. Active and inactive are the calls of the source. Calls follow the shape of the full dose curve.
Would you mind answering with one of these outcomes? active, inactive

Hey, what did the test say about CCCCN(CCN(CCCC)C(=O)N1CCOCC1)C(=O)N1CCOCC1 ?
inactive

Further cases:
# lookup: test call for C[C@H](N)[C@H](O)c1ccc(O)c(O)c1
inactive

What did the test return for CN1CCCC(CC2c3ccccc3Sc3ccccc32)C1 (stereo not drawn) ?
active
